Source of measurements: patent US11555026B2

The entries below come with measured IC50 values attached.
MEASUREMENT TARGET: AHR (UniProt P35869)
ASSAY NOTES: DRE-Luciferase Reporter Assay (Alternate Method, Example 1B)
Format: cell-based
Design: IC50; other: alternate method: compound and agonist added at plating or after overnight incubation; murine (Hepa1-6, He)
CONDITION PARAMETERS: alternate method: compound and agonist added at plating or after overnight incubation; murine (Hepa1-6, Hepa-1c1c7) or human (HepG2) DRE-luciferase reporter cells, cell line used not stated
Protocol: AHR binds to Dioxin Responsive Elements (DRE) upstream of genes that it activates. One measure of AHR activity is activation of a reporter gene, such as luciferase, downstream of one or multiple DRE elements. […] Cells were incubated for 4, 15 or 24 hours or another time point and then lysed for determination of luciferase activity as a read-out of the AHR activation or inhibition. […] IC50 values were determined as the concentration which inhibits half of the luciferase activity.

[
  {
    "MOL SMILES": "Cn1nccc1C(=O)Nc1ccc2cc(-c3ccccc3O)cnc2c1",
    "VALUE": "1000 to 1500 nM"
  }
]

Query: # input molecule: Cc1cc(C#Cc2cccc3c2OCO3)ccc1NC(=O)c1ccnn1C ; wanted: its IC50
Response: > 1500 nM

Query: What would you report for Cn1nccc1C(=O)Nc1ccc2cc(-c3ccc(O)cc3)cnc2c1 ?
Response: > 1500 nM

Query: What would you report for Cc1ccccc1/C=C/c1ccc(C(=O)Nc2ccnn2C)c(C)c1 ?
Response: > 1500 nM

Query: What would you report for Cn1nccc1C(=O)Nc1ccc(C#Cc2ccccc2)cc1C(F)(F)F ?
Response: > 1500 nM

Query: What would you report for Cc1cc(/C=C/c2ccccc2)ccc1N(C)C(=O)c1ccnn1C ?
Response: 500 to 1000 nM

Query: What would you report for Cc1ccccc1-c1cnc2ccc(NC(=O)c3ccnn3C)c(C)c2c1 ?
Response: > 1500 nM

Query: What would you report for Cc1cc(C#Cc2ccncc2)ccc1NC(=O)c1ccnn1C ?
Response: > 1500 nM

Query: What would you report for Cn1cncc1C(=O)Nc1ccc2cc(-c3ccccc3)cnc2c1 ?
Response: > 1500 nM

Query: What would you report for Cn1nccc1C(=O)Nc1ccc2cc(-c3nccs3)cnc2c1 ?
Response: < 500 nM

Query: What would you report for Cc1cc(C#CC2CCCCC2)ccc1NC(=O)c1ccnn1C ?
Response: > 1500 nM

Query: What would you report for Cc1cc(C#Cc2cccnc2)ccc1NC(=O)c1ccnn1C ?
Response: > 1500 nM

Query: What would you report for Cc1cc(C#CC2CCNCC2)ccc1NC(=O)c1ccnn1C ?
Response: > 1500 nM

Query: What would you report for Cc1c(NC(=O)c2ccnn2C)ccc2nc(-c3ccccc3)ccc12 ?
Response: > 1500 nM
